pIC50: −log10 of the molar value.
The next entries give measured pIC50 for EGFR kinase (Homo sapiens, UniProt P00533).
experimental endpoint: pIC50

{"smiles entry": "COC(=O)[C@@H](NC(=O)CN1C(=O)S[C@@]2(C1=O)[C@@H](c1ccc(Br)cc1)[C@H]1CSCN1[C@@]21C(=O)Nc2cc(Cl)ccc21)C(C)C", "experimental endpoint": "pIC50", "test value": 7.17}
{"smiles entry": "O=C(O)CN1C(=O)S[C@@]2(C1=O)[C@@H](c1ccc(Cl)cc1)[C@H]1CSCN1[C@@]21C(=O)Nc2ccc(Br)cc21", "experimental endpoint": "pIC50", "test value": 7.59}
{"smiles entry": "COC(=O)[C@H](C)NC(=O)CN1C(=O)S[C@@]2(C1=O)[C@@H](c1ccc(Cl)cc1)[C@H]1CSCN1[C@@]21C(=O)Nc2cc(Cl)ccc21", "experimental endpoint": "pIC50", "test value": 7.40}

====

The next entries give measured pIC50 for CDK-2 kinase (Homo sapiens).
pIC50: −log10 of the molar value.

{"smiles entry": "COC(=O)[C@H](C)NC(=O)CN1C(=O)S[C@@]2(C1=O)[C@@H](c1ccc(Cl)cc1)[C@H]1CSCN1[C@@]21C(=O)Nc2cc(Cl)ccc21", "pIC50": 6.25}
{"smiles entry": "O=C(O)CN1C(=O)S[C@@]2(C1=O)[C@@H](c1ccc(Cl)cc1)[C@H]1CSCN1[C@@]21C(=O)Nc2ccc(Br)cc21", "pIC50": 6.52}
{"smiles entry": "COC(=O)[C@@H](NC(=O)CN1C(=O)S[C@@]2(C1=O)[C@@H](c1ccc(Br)cc1)[C@H]1CSCN1[C@@]21C(=O)Nc2cc(Cl)ccc21)C(C)C", "pIC50": 6.46}

====

system: WISH cells; test: MTT cytotoxicity (safety) assay, normal WISH cells; type: cell-based; conditions: mean ± SD of three independent trials
// reported IC50 per item

{"smiles entry": "COC(=O)[C@H](C)NC(=O)CN1C(=O)S[C@@]2(C1=O)[C@@H](c1ccc(Cl)cc1)[C@H]1CSCN1[C@@]21C(=O)Nc2cc(Cl)ccc21", "IC50": "47.2 µM"}
{"smiles entry": "COC(=O)[C@@H](NC(=O)CN1C(=O)S[C@@]2(C1=O)[C@@H](c1ccc(Br)cc1)[C@H]1CSCN1[C@@]21C(=O)Nc2cc(Cl)ccc21)C(C)C", "IC50": "43.5 µM"}
{"smiles entry": "O=C(O)CN1C(=O)S[C@@]2(C1=O)[C@@H](c1ccc(Cl)cc1)[C@H]1CSCN1[C@@]21C(=O)Nc2ccc(Br)cc21", "IC50": "39.3 µM"}

====

// reported pIC50 per item
test system: MDA-MB-231 cells; test: MTT cytotoxicity assay, MDA-MB-231 breast cancer cells; format: cell-based; conditions: Homo sapiens, MDA-MB-231, MTT assay; mean ± SD of three independent trials; read-out: IC50 ± SD, MDA-MB-231
pIC50: −log10 of the molar value.

{"smiles entry": "COC(=O)CNC(=O)CN1C(=O)S[C@@]2(C1=O)[C@@H](c1ccc(Cl)cc1)[C@H]1CSCN1[C@@]21C(=O)Nc2cc(Cl)ccc21", "pIC50": 4.49}
{"smiles entry": "O=C(CN1C(=O)S[C@@]2(C1=O)[C@@H](c1ccc(Cl)cc1)[C@H]1CSCN1[C@@]21C(=O)Nc2ccc([N+](=O)[O-])cc21)NCCN1CCOCC1", "pIC50": 4.45}
{"smiles entry": "O=C(O)CN1C(=O)S[C@@]2(C1=O)[C@@H](c1ccc(Cl)cc1)[C@H]1CSCN1[C@@]21C(=O)Nc2ccc(Br)cc21", "pIC50": 4.63}
{"smiles entry": "COC(=O)[C@H](C)NC(=O)CN1C(=O)S[C@@]2(C1=O)[C@@H](c1ccc(Cl)cc1)[C@H]1CSCN1[C@@]21C(=O)Nc2cc(Cl)ccc21", "pIC50": 5.28}
{"smiles entry": "COC(=O)[C@@H](NC(=O)CN1C(=O)S[C@@]2(C1=O)[C@@H](c1ccc(Br)cc1)[C@H]1CSCN1[C@@]21C(=O)Nc2cc(Cl)ccc21)C(C)C", "pIC50": 5.07}
{"smiles entry": "COC(=O)[C@@H](NC(=O)CN1C(=O)S[C@@]2(C1=O)[C@@H](c1ccc(Br)cc1)[C@H]1CSCN1[C@@]21C(=O)Nc2ccc(F)cc21)C(C)C", "pIC50": 5.20}
{"smiles entry": "O=C(CN1C(=O)S[C@@]2(C1=O)[C@@H](c1ccc(Cl)cc1)[C@H]1CSCN1[C@@]21C(=O)Nc2ccc(Cl)cc21)NCCN1CCOCC1", "pIC50": 4.71}
{"smiles entry": "COC(=O)CCCNC(=O)CN1C(=O)S[C@@]2(C1=O)[C@@H](c1ccc(Br)cc1)[C@H]1CSCN1[C@@]21C(=O)Nc2cc(Cl)ccc21", "pIC50": 5.36}
{"smiles entry": "COC(=O)CNC(=O)CN1C(=O)S[C@@]2(C1=O)[C@@H](c1ccc(Cl)cc1)[C@H]1CSCN1[C@@]21C(=O)Nc2ccc(Cl)cc21", "pIC50": 4.53}
{"smiles entry": "O=C(O)CN1C(=O)S[C@@]2(C1=O)[C@@H](c1ccc(Cl)cc1)[C@H]1CSCN1[C@@]21C(=O)Nc2ccc([N+](=O)[O-])cc21", "pIC50": 4.45}
{"smiles entry": "O=C(O)CN1C(=O)S[C@@]2(C1=O)[C@@H](c1ccc(Cl)cc1)[C@H]1CSCN1[C@@]21C(=O)Nc2cc(Cl)ccc21", "pIC50": 4.62}
{"smiles entry": "O=C(O)CN1C(=O)S[C@@]2(C1=O)[C@@H](c1ccc(Cl)cc1)[C@H]1CSCN1[C@@]21C(=O)Nc2ccc(F)cc21", "pIC50": 5.01}
{"smiles entry": "O=C(CN1C(=O)S[C@@]2(C1=O)[C@@H](c1ccc(Cl)cc1)[C@H]1CSCN1[C@@]21C(=O)Nc2ccc(F)cc21)NCCN1CCOCC1", "pIC50": 4.67}
{"smiles entry": "Cc1ccc2c(c1)[C@@]1(C(=O)N2)N2CSC[C@@H]2[C@H](c2ccc(Cl)cc2)[C@]12SC(=O)N(CC(=O)O)C2=O", "pIC50": 5.27}
